Field: neutralization IC80. Provide a value for each of the binders that follow.
# Tgt: HIV-1 Env of pseudovirus RHPA4259.7 (HIV-1)
# Assay method text: cell-based or functional assay
Give bare numbers, in µg/mL.

Below are 5 binders. Give each one its neutralization IC80.
1. MS-70 (antibody, V domains shown) VH: QVQLVQSGPEVRKPGTSVKVSCKAPGNTLKTYDLHWVRSVPGQGLQWMGWISHEGDKKVIVERFKAKVTIDWDRSTNTAYLQLSGLTSGDTAVYYCAKGSKHRLRDYALYDDDGALNWAVDVDYLSNLEFWGQGTAVTVSS VL: DFVLTQSPHSLSVTPGESASISCKSSHSLIHGDRNNYLAWYVQKPGQSPQLLIYLASSRASGVPDRFSGSGSDKDFTLKISRVETEDVGTYYCMQGRESPWTFGQGTKVDIKR
2. MS-84 (antibody, V domains shown) VH: QVQLVQSGPEVRKPGTSVKVSCKAPGNTLKTYDLHWVRSVPGQGLQWMGWISHEGDKKVIVERFKAKVTIDWDRSTNTAYLQLSGLRSGDTAVYYCAKGSKHRLRDYALYDDDGALNWAVDVDYLSNLEFWGQGTAVTVSS VL: DFVLTQSPLSLPVTPGEPASISCKSSHSLIHGDRNNYLAWYVQKPGQSPQLLIYLASSRASGVPDRFSGSGSDKDFTLKISRVEAEDVGVYYCMQGRESPWTFGQGTKVDIKR
3. MS-75 (antibody, V domains shown) VH: QVQLVQSGPEVRKPGTSVKVSCKASGNTLKTYDLHWVRSVPGQGLQWMGWISHEGDKKVIVERFKAKVTIDWDRSTNTAYLQLSGLTSGDTAVYYCAKGSKHRLRDYALYDDDGALNWAVDVDYLSNLEFWGQGTAVTVSS VL: DFVLTQSPHSLSVTPGESASISCKSSHSLIHGDRNNYLAWYVQKPGRSPQLLIYLASSRASGVPDRFSGSGSDKDFTLKISRVETEDVGTYYCMQGRESPWTFGQGTKVDIKR
4. MS-85 (antibody, V domains shown) VH: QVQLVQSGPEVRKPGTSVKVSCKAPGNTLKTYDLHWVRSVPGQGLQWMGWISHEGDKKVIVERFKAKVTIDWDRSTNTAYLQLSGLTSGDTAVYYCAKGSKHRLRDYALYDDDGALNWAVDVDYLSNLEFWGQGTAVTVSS VL: DIVLTQSPHSLSVTPGESASISCKSSHSLIHGDRNNYLAWYVQKPGRSPQLLIYLASSRASGVPDRFSGSGSGTDFTLKISRVETEDVGTYYCMQGRESPWTFGQGTKVDIKR
5. MS-83 (antibody, V domains shown) VH: QVQLVQSGPEVRKPGTSVKVSCKAPGNTLKTYDLHWVRSVPGQGLQWMGWISHEGDKKVIVERFKAKVTIDWDRSTNTAYLQLSGLTSGDTAVYYCAKGSKHRLRDYALYDDEGALNWAVDVDYLSNLEFWGQGTAVTVSS VL: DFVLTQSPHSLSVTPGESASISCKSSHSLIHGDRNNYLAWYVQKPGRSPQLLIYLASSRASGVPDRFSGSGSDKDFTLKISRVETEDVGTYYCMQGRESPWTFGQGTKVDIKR

Outgoing:
[0.734, 0.773, 1.31, 0.794, 0.663]
